tested on: Mus musculus; experiment: Compound was evaluated for the antitumor activity as average change in body weight against L1210 leukemia in mice at 150 mg/kg dose; type: functional
Overview of recorded Average change in weight for various compounds
Experimental Endpoint: Average change in weight (%)

INSERT INTO assay_data (compound_structure_string, experimental_endpoint, data_value) VALUES
  ('COc1ccc(S(=O)(=O)NN(C)S(=O)(=O)c2ccc(C)cc2)cc1', 'Average change in weight', 2.9),
  ('COc1ccc(S(=O)(=O)N(C)NS(=O)(=O)c2ccc(C)cc2)cc1', 'Average change in weight', 9.8),
  ('Cc1ccc(S(=O)(=O)N(C)NS(=O)(=O)c2ccc(Cl)cc2)cc1', 'Average change in weight', 6),
  ('Cc1ccc(S(=O)(=O)NN(C)S(=O)(=O)c2ccc(Cl)cc2)cc1', 'Average change in weight', -4.6);

###

assay: Compound was evaluated for relative alkylating activity
Experimental Endpoint: Relative activity

INSERT INTO results (compound_structure_string, experimental_endpoint, data_value) VALUES
  ('CN(NC(=O)c1ccccc1)C(=O)c1ccccc1', 'Relative activity', 10),
  ('COc1ccc(S(=O)(=O)NN(C)S(=O)(=O)c2ccc(C)cc2)cc1', 'Relative activity', 91),
  ('CN(NS(=O)(=O)c1ccc(Cl)cc1)S(=O)(=O)c1ccc(Cl)cc1', 'Relative activity', 190),
  ('COc1ccc(S(=O)(=O)N(C)NS(=O)(=O)c2ccc(C)cc2)cc1', 'Relative activity', 85),
  ('Cc1ccc(S(=O)(=O)NN(C)S(=O)(=O)c2ccc(Cl)cc2)cc1', 'Relative activity', 163),
  ('Cc1ccc(S(=O)(=O)N(C)NS(=O)(=O)Cc2ccccc2)cc1', 'Relative activity', 136),
  ('Cc1ccc(S(=O)(=O)N(C)NS(=O)(=O)c2ccc(Cl)cc2)cc1', 'Relative activity', 126),
  ('Cc1ccc(S(=O)(=O)N(C)NS(=O)(=O)c2ccccc2)cc1', 'Relative activity', 112),
  ('O=S(=O)(NNS(=O)(=O)c1ccccc1)c1ccccc1', 'Relative activity', 0),
  ('Cc1ccc(S(=O)(=O)NN(C)S(=O)(=O)c2ccc(C)cc2)cc1', 'Relative activity', 100);
